- Target Under Test: Vascular endothelial growth factor receptor 2 (Homo sapiens)
- Assay Name: Inhibition of VEGFR-2 kinase
pIC50: −log10 of the molar value.
Observable: pIC50

* CN1CCc2nc(-c3cc4ccccc4[nH]c3=O)[nH]c2C1 | 6.00

* * *

- Target Under Test: CYP2C9 (Homo sapiens, UniProt P11712)
- Sequence (P11712 whole entry): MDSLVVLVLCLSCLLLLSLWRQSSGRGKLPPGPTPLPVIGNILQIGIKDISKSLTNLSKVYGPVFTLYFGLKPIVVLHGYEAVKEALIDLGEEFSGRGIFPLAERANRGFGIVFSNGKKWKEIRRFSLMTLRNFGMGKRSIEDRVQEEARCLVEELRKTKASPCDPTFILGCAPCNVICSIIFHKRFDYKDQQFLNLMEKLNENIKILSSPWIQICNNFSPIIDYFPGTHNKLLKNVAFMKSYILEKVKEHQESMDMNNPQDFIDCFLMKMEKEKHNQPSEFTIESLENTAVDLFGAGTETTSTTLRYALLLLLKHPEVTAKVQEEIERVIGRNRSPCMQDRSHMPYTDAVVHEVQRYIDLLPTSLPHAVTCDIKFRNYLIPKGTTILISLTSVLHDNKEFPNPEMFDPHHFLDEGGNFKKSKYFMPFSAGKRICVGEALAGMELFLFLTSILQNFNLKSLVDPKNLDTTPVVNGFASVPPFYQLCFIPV
- Assay Name: Inhibition of recombinant human CYP2C9 assessed as remaining activity at 10 uM after 20 mins by fluorescence assay
- Assay type: ADME
- Test Parameters: read-out: Activity
activity at 20 min, 10 µM reference
Observable: activity at 20 min, 10 µM (%)

- O=C(c1ccc(CN2CCCCC2)cc1)N1CCc2nc(-c3cc4cc(F)ccc4[nH]c3=O)[nH]c2C1: 94
- O=C(c1ccncc1)N1CCc2nc(-c3cc4cc(F)ccc4[nH]c3=O)[nH]c2C1: 53
- O=C(Cc1ccncc1)N1CCc2nc(-c3cc4cc(F)ccc4[nH]c3=O)[nH]c2C1: 28
- O=C(c1cccnc1)N1CCc2nc(-c3cc4cc(F)ccc4[nH]c3=O)[nH]c2C1: 99

* * *

- Assay Name: Metabolic stability in human liver microsomes assessed as compound remaining at 2 uM after 30 mins by LC/MS/MS method
- Type: ADME, Microsome
- Test Parameters: read-out: Stability
Observable: remaining at 0.5 h, 2 µM (%)

* O=C(c1ccc(CN2CCCCC2)cc1)N1CCc2nc(-c3cc4cc(F)ccc4[nH]c3=O)[nH]c2C1 | 92

* * *

- Target Under Test: UniProt P10635
- Sequence (P10635 whole entry): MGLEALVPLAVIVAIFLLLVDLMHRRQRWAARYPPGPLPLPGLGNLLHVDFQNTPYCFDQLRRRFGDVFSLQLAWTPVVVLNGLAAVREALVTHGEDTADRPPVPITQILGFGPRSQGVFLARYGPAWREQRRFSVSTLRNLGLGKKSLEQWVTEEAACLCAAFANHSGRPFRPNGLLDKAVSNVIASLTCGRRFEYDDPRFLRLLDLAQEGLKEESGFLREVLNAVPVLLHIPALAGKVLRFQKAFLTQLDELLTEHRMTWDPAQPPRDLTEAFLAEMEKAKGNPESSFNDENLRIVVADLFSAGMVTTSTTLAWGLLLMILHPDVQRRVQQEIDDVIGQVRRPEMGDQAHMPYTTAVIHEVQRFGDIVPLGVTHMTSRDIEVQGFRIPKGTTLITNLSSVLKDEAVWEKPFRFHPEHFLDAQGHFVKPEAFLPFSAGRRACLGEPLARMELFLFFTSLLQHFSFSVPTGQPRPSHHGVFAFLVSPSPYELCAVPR
- Assay Name: Inhibition of recombinant human CYP2D6 assessed as remaining activity at 10 uM after 20 mins by fluorescence assay
- Format: ADME
- Test Parameters: read-out: Activity
activity at 20 min, 10 µM reference
Observable: activity at 20 min, 10 µM (%)

- O=C(c1ccncc1)N1CCc2nc(-c3cc4cc(F)ccc4[nH]c3=O)[nH]c2C1: 90
- O=C(Cc1ccncc1)N1CCc2nc(-c3cc4cc(F)ccc4[nH]c3=O)[nH]c2C1: 21
- O=C(c1cccnc1)N1CCc2nc(-c3cc4cc(F)ccc4[nH]c3=O)[nH]c2C1: 67
- O=C(c1ccc(CN2CCCCC2)cc1)N1CCc2nc(-c3cc4cc(F)ccc4[nH]c3=O)[nH]c2C1: 100

* * *

- Target Under Test: Vascular endothelial growth factor receptor 2 (Homo sapiens, UniProt P35968)
- Sequence (P35968 whole entry, the tested form may be a part): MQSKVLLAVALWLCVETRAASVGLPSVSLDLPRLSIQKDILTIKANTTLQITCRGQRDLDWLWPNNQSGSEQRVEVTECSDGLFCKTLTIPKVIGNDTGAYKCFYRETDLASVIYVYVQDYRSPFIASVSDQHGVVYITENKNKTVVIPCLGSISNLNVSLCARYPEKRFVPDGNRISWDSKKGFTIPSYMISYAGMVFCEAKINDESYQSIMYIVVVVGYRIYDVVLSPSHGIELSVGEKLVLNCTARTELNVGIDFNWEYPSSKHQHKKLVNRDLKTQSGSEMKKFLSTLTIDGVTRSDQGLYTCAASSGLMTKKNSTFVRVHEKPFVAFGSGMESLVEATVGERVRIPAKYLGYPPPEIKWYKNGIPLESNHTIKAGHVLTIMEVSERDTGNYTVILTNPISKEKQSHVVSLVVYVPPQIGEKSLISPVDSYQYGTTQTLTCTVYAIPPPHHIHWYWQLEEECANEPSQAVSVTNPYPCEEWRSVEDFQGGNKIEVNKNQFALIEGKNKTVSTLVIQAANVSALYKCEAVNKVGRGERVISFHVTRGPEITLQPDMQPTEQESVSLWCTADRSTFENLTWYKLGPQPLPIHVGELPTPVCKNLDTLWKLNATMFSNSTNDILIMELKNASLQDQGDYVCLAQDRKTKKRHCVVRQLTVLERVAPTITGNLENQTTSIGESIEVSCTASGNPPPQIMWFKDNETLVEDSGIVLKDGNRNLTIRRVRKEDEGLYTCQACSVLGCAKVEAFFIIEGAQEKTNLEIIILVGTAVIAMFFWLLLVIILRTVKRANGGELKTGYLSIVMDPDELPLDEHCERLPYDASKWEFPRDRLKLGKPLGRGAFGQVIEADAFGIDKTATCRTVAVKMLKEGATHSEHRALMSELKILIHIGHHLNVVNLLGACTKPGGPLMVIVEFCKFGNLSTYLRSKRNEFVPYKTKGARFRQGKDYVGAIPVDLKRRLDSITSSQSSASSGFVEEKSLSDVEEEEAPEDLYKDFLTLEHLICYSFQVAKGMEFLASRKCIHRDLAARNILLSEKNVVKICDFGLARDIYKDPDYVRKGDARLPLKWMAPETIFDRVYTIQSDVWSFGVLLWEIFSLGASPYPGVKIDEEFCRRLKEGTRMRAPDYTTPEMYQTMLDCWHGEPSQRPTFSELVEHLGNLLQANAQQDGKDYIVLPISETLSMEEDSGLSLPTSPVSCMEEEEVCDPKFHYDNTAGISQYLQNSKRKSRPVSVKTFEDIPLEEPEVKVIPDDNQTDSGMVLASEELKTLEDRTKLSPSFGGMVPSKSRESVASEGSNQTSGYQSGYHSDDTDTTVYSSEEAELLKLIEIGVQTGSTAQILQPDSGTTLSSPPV
- Assay Name: Inhibition of recombinant VEGFR-2 kinase domain by homogeneous time-resolved fluorescence assay
Observable: IC50 (nM)

- COc1ccc(NC(=O)N2CCc3nc(-c4cc5ccccc5[nH]c4=O)[nH]c3C2)cc1: 46
- CN1CCN(CC(=O)N2CCc3nc(-c4cc5c(F)cccc5[nH]c4=O)[nH]c3C2)CC1: 1050
- Cc1cccc(NC(=O)N2CCc3nc(-c4cc5ccccc5[nH]c4=O)[nH]c3C2)c1: 2.1
- O=C(CN1CCCCC1)N1CCc2nc(-c3cc4c(F)cccc4[nH]c3=O)[nH]c2C1: 740
- O=C(CN1CCOCC1)N1CCc2nc(-c3cc4c(F)cccc4[nH]c3=O)[nH]c2C1: 1100
- O=C(c1ccncc1)N1CCc2nc(-c3cc4cc(F)ccc4[nH]c3=O)[nH]c2C1: 0.3
- O=c1[nH]c2ccccc2cc1-c1nc2c([nH]1)CN(Cc1ccccc1)CC2: 6000
- COc1ccc2[nH]c(=O)c(-c3nc4c([nH]3)CN(C(=O)CN3CCOCC3)CC4)cc2c1: 760
- O=C(CN1CCOCC1)N1CCc2nc(-c3cc4cc(Cl)ccc4[nH]c3=O)[nH]c2C1: 35
- O=C(CN1CCCCC1)N1CCc2nc(-c3cc4cc(F)ccc4[nH]c3=O)[nH]c2C1: 8
- O=C(c1ccncc1)N1CCc2nc(-c3cc4ccccc4[nH]c3=O)[nH]c2C1: 200
- O=C(CN1CCCCC1)N1CCc2nc(-c3cc4cc(Cl)ccc4[nH]c3=O)[nH]c2C1: 22
- O=C(c1ccncc1)N1CCc2nc(-c3cc4c(F)cccc4[nH]c3=O)[nH]c2C1: 800
- O=C(CN1CCOCC1)N1CCc2nc(-c3cc4cc(F)ccc4[nH]c3=O)[nH]c2C1: 4.3
- O=C(Cc1ccccn1)N1CCc2nc(-c3cc4ccccc4[nH]c3=O)[nH]c2C1: 1.3
- O=C(c1cccnc1)N1CCc2nc(-c3cc4cc(F)ccc4[nH]c3=O)[nH]c2C1: 1
- CN1CCc2nc(-c3cc4ccccc4[nH]c3=O)[nH]c2C1: 1000
- O=C(c1cccnc1)N1CCc2nc(-c3cc4c(F)cccc4[nH]c3=O)[nH]c2C1: 600
- O=C(c1cccnc1)N1CCc2nc(-c3cc4ccccc4[nH]c3=O)[nH]c2C1: 200
- CCN(CC)CC(=O)N1CCc2nc(-c3cc4ccccc4[nH]c3=O)[nH]c2C1: 300
- CN1CCN(CC(=O)N2CCc3nc(-c4cc5cc(Cl)ccc5[nH]c4=O)[nH]c3C2)CC1: 19
- O=c1[nH]c2ccccc2cc1-c1nc2c([nH]1)CN(C1CCNCC1)CC2: 5000
- O=C(CN1CCOCC1)N1CCc2nc(-c3cc4ccccc4[nH]c3=O)[nH]c2C1: 300
- O=C(Cc1ccncc1)N1CCc2nc(-c3cc4cc(Cl)ccc4[nH]c3=O)[nH]c2C1: 0.5
- COc1ccc2[nH]c(=O)c(-c3nc4c([nH]3)CN(C(=O)CN3CCCCC3)CC4)cc2c1: 280
- CN1CCN(CC(=O)N2CCc3nc(-c4cc5cc(F)ccc5[nH]c4=O)[nH]c3C2)CC1: 13
- O=C(Cc1ccncc1)N1CCc2nc(-c3cc4ccccc4[nH]c3=O)[nH]c2C1: 6.7
- O=C(Cc1ccccn1)N1CCc2nc(-c3cc4cc(F)ccc4[nH]c3=O)[nH]c2C1: 0.7
- O=C(CN1CCCCC1)N1CCc2nc(-c3cc4ccccc4[nH]c3=O)[nH]c2C1: 16
- O=C(c1ccc(CN2CCCCC2)cc1)N1CCc2nc(-c3cc4cc(F)ccc4[nH]c3=O)[nH]c2C1: 4.9
- COc1ccc2[nH]c(=O)c(-c3nc4c([nH]3)CN(C(=O)CN3CCN(C)CC3)CC4)cc2c1: 1100
